Target: Epidermal growth factor receptor (Homo sapiens, UniProt P00533)
Sequence (P00533 whole entry): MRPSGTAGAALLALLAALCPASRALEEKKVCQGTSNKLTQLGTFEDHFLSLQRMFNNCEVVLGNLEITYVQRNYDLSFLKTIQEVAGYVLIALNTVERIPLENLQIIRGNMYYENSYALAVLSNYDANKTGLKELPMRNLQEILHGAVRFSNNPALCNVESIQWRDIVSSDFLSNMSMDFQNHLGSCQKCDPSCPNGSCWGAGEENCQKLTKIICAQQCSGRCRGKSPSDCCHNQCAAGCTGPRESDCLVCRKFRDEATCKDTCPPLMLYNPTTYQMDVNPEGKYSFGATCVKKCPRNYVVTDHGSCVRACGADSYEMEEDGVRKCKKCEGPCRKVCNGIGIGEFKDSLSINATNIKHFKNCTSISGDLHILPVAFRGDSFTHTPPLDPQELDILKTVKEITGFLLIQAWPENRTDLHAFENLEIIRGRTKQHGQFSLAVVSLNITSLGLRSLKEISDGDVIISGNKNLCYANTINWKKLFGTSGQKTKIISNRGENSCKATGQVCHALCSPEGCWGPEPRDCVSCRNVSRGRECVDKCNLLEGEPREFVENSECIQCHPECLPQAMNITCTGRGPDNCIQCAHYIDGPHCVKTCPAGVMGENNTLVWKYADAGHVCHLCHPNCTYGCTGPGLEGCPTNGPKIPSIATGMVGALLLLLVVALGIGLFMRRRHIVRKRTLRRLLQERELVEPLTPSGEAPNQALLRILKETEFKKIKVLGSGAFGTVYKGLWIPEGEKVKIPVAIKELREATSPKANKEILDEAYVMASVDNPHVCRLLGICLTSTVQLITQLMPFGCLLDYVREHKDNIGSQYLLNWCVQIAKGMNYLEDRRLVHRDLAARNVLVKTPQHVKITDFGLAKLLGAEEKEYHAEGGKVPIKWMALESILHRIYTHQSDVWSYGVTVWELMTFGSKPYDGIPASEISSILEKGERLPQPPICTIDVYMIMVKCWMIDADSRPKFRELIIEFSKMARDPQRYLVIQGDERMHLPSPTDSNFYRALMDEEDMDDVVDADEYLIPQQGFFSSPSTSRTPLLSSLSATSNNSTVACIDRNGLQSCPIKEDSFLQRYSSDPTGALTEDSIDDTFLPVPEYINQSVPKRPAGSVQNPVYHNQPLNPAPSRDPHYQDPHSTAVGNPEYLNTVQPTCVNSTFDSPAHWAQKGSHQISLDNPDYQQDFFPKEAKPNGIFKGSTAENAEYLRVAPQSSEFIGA
Test: Displacement of [125I]4-(3-iodoanilino)-6,7-dimethoxyquinazoline from EGFR tyrosine kinase in human A431 cell membranes
Parameters: species or system A-431
Below: a set of entries, each annotated with reported IC50.
MEASURED_PROPERTY: IC50 (nM)

[[record]]
smiles_string = "CCOc1cc2ncnc(Nc3cc(F)cc(C(F)(F)F)c3)c2cc1OCC"
result_number = 8.95

[[record]]
smiles_string = "CCOc1cc2ncnc(Nc3cccc(F)c3)c2cc1OCC"
result_number = 8.17

[[record]]
smiles_string = "CCOc1cc2ncnc(NCc3ccc(F)cc3)c2cc1OCC"
result_number = 17

[[record]]
smiles_string = "CCOc1cc2ncnc(Nc3ccc(F)cc3)c2cc1OCC"
result_number = 16

[[record]]
smiles_string = "COc1cc2ncnc(Nc3cc(F)cc(C(F)(F)F)c3)c2cc1OC"
result_number = 20

[[record]]
smiles_string = "CCOc1cc2ncnc(Nc3cccc(I)c3)c2cc1OCC"
result_number = 0.64

[[record]]
smiles_string = "COc1cc2ncnc(Nc3cccc(I)c3)c2cc1OC"
result_number = 1.05

[[record]]
smiles_string = "CCOc1cc2ncnc(Nc3ccccc3F)c2cc1OCC"
result_number = 9.31

[[record]]
smiles_string = "CCOc1cc2ncnc(Nc3cccc(Cl)c3)c2cc1OCC"
result_number = 0.38

[[record]]
smiles_string = "COc1cc2ncnc(Nc3ccccc3F)c2cc1OC"
result_number = 32.2

[[record]]
smiles_string = "CCOc1cc2ncnc(Nc3cccc(Br)c3)c2cc1OCC"
result_number = 0.41

[[record]]
smiles_string = "COc1cc2ncnc(Nc3ccc(F)cc3)c2cc1OC"
result_number = 51


====

Test: Lipophilicity, log P of the compound
Assay type: physicochemical
Conditions: octanol/water
The following ranges of logP define the classes used here: class 1 = under 3, class 2 = from 3 up to 4, class 3 = 4 and over

[[record]]
smiles_string = "CCOc1cc2ncnc(Nc3ccc(F)cc3)c2cc1OCC"
category = "class 2"

[[record]]
smiles_string = "COc1cc2ncnc(Nc3cccc(Br)c3)c2cc1OC"
category = "class 2"

[[record]]
smiles_string = "CCOc1cc2ncnc(NCc3ccc(F)cc3)c2cc1OCC"
category = "class 2"

[[record]]
smiles_string = "COc1cc2ncnc(Nc3cc(F)cc(C(F)(F)F)c3)c2cc1OC"
category = "class 3"

[[record]]
smiles_string = "COc1cc2ncnc(Nc3cccc(Cl)c3)c2cc1OC"
category = "class 2"

[[record]]
smiles_string = "CCOc1cc2ncnc(Nc3cccc(Cl)c3)c2cc1OCC"
category = "class 3"

[[record]]
smiles_string = "COc1cc2ncnc(Nc3ccc(F)cc3)c2cc1OC"
category = "class 1"

[[record]]
smiles_string = "COc1cc2ncnc(Nc3ccccc3F)c2cc1OC"
category = "class 1"

[[record]]
smiles_string = "CCOc1cc2ncnc(Nc3cccc(F)c3)c2cc1OCC"
category = "class 2"

[[record]]
smiles_string = "CCOc1cc2ncnc(Nc3cccc(I)c3)c2cc1OCC"
category = "class 3"

[[record]]
smiles_string = "CCOc1cc2ncnc(Nc3cccc(Br)c3)c2cc1OCC"
category = "class 3"

[[record]]
smiles_string = "CCOc1cc2ncnc(Nc3cc(F)cc(C(F)(F)F)c3)c2cc1OCC"
category = "class 3"

[[record]]
smiles_string = "COc1cc2ncnc(Nc3cccc(I)c3)c2cc1OC"
category = "class 2"


====

Target: Receptor tyrosine-protein kinase erbB-4 (Homo sapiens, UniProt Q15303)
Sequence (Q15303 whole entry): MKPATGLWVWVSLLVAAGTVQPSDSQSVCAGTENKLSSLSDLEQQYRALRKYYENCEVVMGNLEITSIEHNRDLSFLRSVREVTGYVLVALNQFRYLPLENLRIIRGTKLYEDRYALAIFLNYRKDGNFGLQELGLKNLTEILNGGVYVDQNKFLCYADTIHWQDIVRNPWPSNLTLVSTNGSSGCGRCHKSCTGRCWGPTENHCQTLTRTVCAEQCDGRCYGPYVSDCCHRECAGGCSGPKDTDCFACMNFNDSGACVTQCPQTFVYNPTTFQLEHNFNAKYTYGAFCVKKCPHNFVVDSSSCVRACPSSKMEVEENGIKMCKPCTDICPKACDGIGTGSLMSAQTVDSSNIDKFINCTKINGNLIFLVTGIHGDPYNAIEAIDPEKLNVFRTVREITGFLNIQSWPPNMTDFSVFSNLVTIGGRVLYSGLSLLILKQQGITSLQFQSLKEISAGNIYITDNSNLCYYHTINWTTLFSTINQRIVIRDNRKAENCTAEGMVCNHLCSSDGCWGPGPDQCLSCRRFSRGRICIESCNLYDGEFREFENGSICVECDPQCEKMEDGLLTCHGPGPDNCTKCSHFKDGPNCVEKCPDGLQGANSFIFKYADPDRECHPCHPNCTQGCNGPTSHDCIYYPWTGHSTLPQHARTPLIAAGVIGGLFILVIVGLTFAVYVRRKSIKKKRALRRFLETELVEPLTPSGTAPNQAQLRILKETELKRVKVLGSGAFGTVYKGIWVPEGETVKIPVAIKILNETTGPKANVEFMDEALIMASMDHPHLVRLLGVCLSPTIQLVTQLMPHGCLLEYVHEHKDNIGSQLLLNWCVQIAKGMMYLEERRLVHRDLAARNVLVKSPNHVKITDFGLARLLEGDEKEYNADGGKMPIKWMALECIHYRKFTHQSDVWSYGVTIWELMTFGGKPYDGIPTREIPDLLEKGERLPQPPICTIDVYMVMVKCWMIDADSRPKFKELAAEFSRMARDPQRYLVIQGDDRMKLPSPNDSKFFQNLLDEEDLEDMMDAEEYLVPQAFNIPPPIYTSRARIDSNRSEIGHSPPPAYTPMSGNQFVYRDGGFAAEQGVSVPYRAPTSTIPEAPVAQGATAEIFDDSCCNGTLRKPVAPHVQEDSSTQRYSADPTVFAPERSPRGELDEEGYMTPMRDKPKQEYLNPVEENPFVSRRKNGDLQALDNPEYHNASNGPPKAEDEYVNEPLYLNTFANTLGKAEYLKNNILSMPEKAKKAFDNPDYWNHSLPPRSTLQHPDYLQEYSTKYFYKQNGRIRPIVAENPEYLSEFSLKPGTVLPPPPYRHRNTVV
Test: Inhibition of human ErbB4 tyrosine kinase phosphorylation expressed in human CEM/4 cells
MEASURED_PROPERTY: IC50 (nM)

[[record]]
smiles_string = "CCOc1cc2ncnc(Nc3cccc(Br)c3)c2cc1OCC"
limit_operator = "="
result_number = 50

[[record]]
smiles_string = "CCOc1cc2ncnc(NCc3ccc(F)cc3)c2cc1OCC"
limit_operator = ">"
result_number = 100

[[record]]
smiles_string = "COc1cc2ncnc(Nc3cccc(Br)c3)c2cc1OC"
limit_operator = "="
result_number = 49

[[record]]
smiles_string = "CCOc1cc2ncnc(Nc3cccc(I)c3)c2cc1OCC"
limit_operator = "="
result_number = 59


====

Reported IC50 is given for each of the following molecules.
Biological target: Epidermal growth factor receptor (Homo sapiens, UniProt P00533)
Test: Inhibition of human EGFR tyrosine kinase phosphorylation expressed in mouse BaF3 cells
Assay type: functional, cell-based
MEASURED_PROPERTY: IC50

[[record]]
smiles_string = "COc1cc2ncnc(Nc3ccc(F)cc3)c2cc1OC"
measurement_target = "Epidermal growth factor receptor (Homo sapiens, UniProt P00533)"
result = "19.1 nM"

[[record]]
smiles_string = "CCOc1cc2ncnc(Nc3cccc(I)c3)c2cc1OCC"
measurement_target = "Epidermal growth factor receptor (Homo sapiens, UniProt P00533)"
result = "4.6 nM"

[[record]]
smiles_string = "CCOc1cc2ncnc(Nc3cccc(F)c3)c2cc1OCC"
measurement_target = "Epidermal growth factor receptor (Homo sapiens, UniProt P00533)"
result = "6.5 nM"

[[record]]
smiles_string = "CCOc1cc2ncnc(Nc3cccc(Br)c3)c2cc1OCC"
measurement_target = "Epidermal growth factor receptor (Homo sapiens, UniProt P00533)"
result = "3.2 nM"

[[record]]
smiles_string = "CCOc1cc2ncnc(Nc3ccc(F)cc3)c2cc1OCC"
measurement_target = "Epidermal growth factor receptor (Homo sapiens, UniProt P00533)"
result = "23.1 nM"

[[record]]
smiles_string = "CCOc1cc2ncnc(Nc3cc(F)cc(C(F)(F)F)c3)c2cc1OCC"
measurement_target = "Epidermal growth factor receptor (Homo sapiens, UniProt P00533)"
result = "> 50 nM"

[[record]]
smiles_string = "COc1cc2ncnc(Nc3cccc(I)c3)c2cc1OC"
measurement_target = "Epidermal growth factor receptor (Homo sapiens, UniProt P00533)"
result = "6.4 nM"

[[record]]
smiles_string = "COc1cc2ncnc(Nc3cc(F)cc(C(F)(F)F)c3)c2cc1OC"
measurement_target = "Epidermal growth factor receptor (Homo sapiens, UniProt P00533)"
result = "19.1 nM"

[[record]]
smiles_string = "CCOc1cc2ncnc(NCc3ccc(F)cc3)c2cc1OCC"
measurement_target = "Epidermal growth factor receptor (Homo sapiens, UniProt P00533)"
result = "6.6 nM"

[[record]]
smiles_string = "CCOc1cc2ncnc(Nc3ccccc3F)c2cc1OCC"
measurement_target = "Epidermal growth factor receptor (Homo sapiens, UniProt P00533)"
result = "15.8 nM"

[[record]]
smiles_string = "COc1cc2ncnc(Nc3ccccc3F)c2cc1OC"
measurement_target = "Epidermal growth factor receptor (Homo sapiens, UniProt P00533)"
result = "12.8 nM"

[[record]]
smiles_string = "CCOc1cc2ncnc(Nc3cccc(Cl)c3)c2cc1OCC"
measurement_target = "Epidermal growth factor receptor (Homo sapiens, UniProt P00533)"
result = "1.2 nM"


====

Property: pIC50; scope: individual compounds
Molecular target: Receptor tyrosine-protein kinase erbB-2 (Homo sapiens, UniProt P04626)
Sequence (P04626 whole entry): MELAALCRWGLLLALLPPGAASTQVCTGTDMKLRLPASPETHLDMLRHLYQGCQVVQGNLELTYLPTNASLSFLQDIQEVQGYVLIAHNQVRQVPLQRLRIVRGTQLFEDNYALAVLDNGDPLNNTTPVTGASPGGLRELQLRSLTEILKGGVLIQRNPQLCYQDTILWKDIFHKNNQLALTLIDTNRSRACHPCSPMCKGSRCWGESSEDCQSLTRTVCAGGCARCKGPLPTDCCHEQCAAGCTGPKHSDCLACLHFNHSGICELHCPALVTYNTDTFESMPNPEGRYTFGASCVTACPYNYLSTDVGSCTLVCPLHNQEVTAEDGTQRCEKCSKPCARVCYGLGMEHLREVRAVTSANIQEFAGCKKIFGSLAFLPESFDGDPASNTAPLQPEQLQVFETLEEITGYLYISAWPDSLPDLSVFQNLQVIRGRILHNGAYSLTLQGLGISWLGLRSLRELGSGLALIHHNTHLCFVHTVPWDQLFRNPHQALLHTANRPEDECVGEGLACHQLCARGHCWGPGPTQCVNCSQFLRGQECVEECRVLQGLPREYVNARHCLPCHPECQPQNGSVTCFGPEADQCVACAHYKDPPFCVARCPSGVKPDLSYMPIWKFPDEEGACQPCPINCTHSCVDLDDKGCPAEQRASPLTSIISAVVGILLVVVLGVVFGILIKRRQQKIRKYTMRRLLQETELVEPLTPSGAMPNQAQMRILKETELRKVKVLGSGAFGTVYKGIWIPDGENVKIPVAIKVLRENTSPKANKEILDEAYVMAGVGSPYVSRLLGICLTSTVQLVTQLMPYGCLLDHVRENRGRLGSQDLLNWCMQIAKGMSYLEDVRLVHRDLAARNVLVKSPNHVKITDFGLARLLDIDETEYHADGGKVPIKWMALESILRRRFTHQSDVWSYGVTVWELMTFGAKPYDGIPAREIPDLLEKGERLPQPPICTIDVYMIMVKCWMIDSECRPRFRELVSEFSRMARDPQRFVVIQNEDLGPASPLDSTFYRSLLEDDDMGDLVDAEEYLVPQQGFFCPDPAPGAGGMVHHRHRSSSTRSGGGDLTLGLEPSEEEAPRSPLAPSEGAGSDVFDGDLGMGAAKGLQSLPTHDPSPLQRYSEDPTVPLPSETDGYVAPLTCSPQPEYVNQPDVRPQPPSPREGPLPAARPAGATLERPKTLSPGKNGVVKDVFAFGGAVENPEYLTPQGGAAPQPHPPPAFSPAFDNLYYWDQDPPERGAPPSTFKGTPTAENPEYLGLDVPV
Test: Inhibition of human ErbB2 tyrosine kinase phosphorylation expressed in mouse BaF3 cells
pIC50: −log10 of the molar value.
MEASURED_PROPERTY: pIC50

[[record]]
smiles_string = "CCOc1cc2ncnc(Nc3cccc(Br)c3)c2cc1OCC"
result_number = 6.67

[[record]]
smiles_string = "CCOc1cc2ncnc(Nc3cccc(I)c3)c2cc1OCC"
result_number = 7.16

[[record]]
smiles_string = "CCOc1cc2ncnc(NCc3ccc(F)cc3)c2cc1OCC"
result_number = 6.64


====

Recorded logP, one value per entry.
Assay: Lipophilicity, log P of the compound
Type: physicochemical
Conditions: octanol/water
MEASURED_PROPERTY: logP

[[record]]
smiles_string = "COc1cc2ncnc(Nc3cccc(F)c3)c2cc1OC"
measured_property = "logP"
result_number = 2.96

[[record]]
smiles_string = "CCOc1cc2ncnc(Nc3ccccc3F)c2cc1OCC"
measured_property = "logP"
result_number = 3.02

[[record]]
smiles_string = "COc1cc2ncnc(NCc3ccc(F)cc3)c2cc1OC"
measured_property = "logP"
result_number = 3.02

